Target: rat brain farnesyl protein transferase (Rattus norvegicus, UniProt Q02293+Q04631)
Construct: 40-fold purified rat brain farnesyl protein transferase
Assay: PFT inhibitory activity assay (radiolabeled farnesyl pyrophosphate, biotinylated peptide substrate, streptavidin beads)
Settings: 40-fold purified enzyme; 30 mM potassium phosphate buffer, pH 7.4; 37°C for 30 minutes; farnesyl pyrophosphate 0.12 µM, (biotinyl)-Ahe-Tyr-Lys-Cys-Val-Ile-Met 0.1 µM
Procedure: The PFT inhibitory activity of compounds of Formula I was assayed in 30 mM potassium phosphate buffer, pH 7.4, containing 7 mM DTT, 1.2 mM MgCl2, 0.1 mM leupeptin, 0.1 mM pepstatin, and 0.2 mM phenylmethylsulfonyl fluoride. […] After allowing the plate to settle for 30 minutes at room temperature, radioactivity was quantitated on a microBeta counter (model 1450, Wallec).
Non-standard residues stand in square brackets, D forms with d. Residues, ends and D or L forms follow the SMILES beside them. *: point of attachment. Cbz = O=C(OCc1ccccc1)*; Bn = c1ccc(C*)cc1
measurementName: pIC50
Scale explanation: pIC50 corresponds to minus log10 of a concentration expressed in moles per litre.

Reference set (2 entries):
compound	measurementName	reading
C[C@H](NC(=O)[C@H](Cc1c[nH]c2ccccc12)NC(=O)[C@H](COCc1ccccc1)NC(=O)[C@H](Cc1ccc(OCc2ccccc2)cc1)NC(=O)[C@H](Cc1c[nH]cn1)NC(=O)OCc1ccccc1)C(N)=O [Cbz-His-Tyr(OBn)-Ser(OBn)-Trp-Ala-NH2, Cbz-His-Tyr(OBn)-Ser(OBn)-Trp-Ala- NH2] (Cbz-HY(Bn)S(Bn)WA-NH2)	pIC50	7.82
NC(=O)[C@H](Cc1c[nH]c2ccccc12)NC(=O)[C@H](COCc1ccccc1)NC(=O)[C@H](Cc1ccc(OCc2ccccc2)cc1)NC(=O)[C@H](Cc1c[nH]cn1)NC(=O)OCc1ccccc1 [Cbz-His-Tyr(OBn)-Ser(OBn)-Trp-NH2, Cbz-His-Tyr(OBn)-Ser(OBn)-Trp- NH2] (Cbz-HY(Bn)S(Bn)W-NH2)	pIC50	7.08

Okay, next one:
# C[C@@H](NC(=O)[C@H](Cc1c[nH]c2ccccc12)NC(=O)[C@H](CS)NC(=O)[C@H](Cc1ccc(OCc2ccccc2)cc1)NC(=O)[C@H](Cc1c[nH]cn1)NC(=O)OCc1ccccc1)C(N)=O [Cbz-His-Tyr (OBn)-Cys-Trp-DAla-NH2] (Cbz-HY(Bn)CW[dA]-NH2) with rat brain farnesyl protein transferase (Rattus norvegicus, UniProt Q02293+Q04631): pIC50 is 8.40

###

target: rat brain farnesyl protein transferase (Rattus norvegicus, UniProt Q02293+Q04631); construct: 40-fold purified rat brain farnesyl protein transferase; experiment: PFT inhibitory activity assay (radiolabeled farnesyl pyrophosphate, biotinylated peptide substrate, streptavidin beads); details: 40-fold purified enzyme; 30 mM potassium phosphate buffer, pH 7.4; 37°C for 30 minutes; farnesyl pyrophosphate 0.12 µM, (biotinyl)-Ahe-Tyr-Lys-Cys-Val-Ile-Met 0.1 µM
Residues, ends and D or L forms follow the SMILES beside them. *: point of attachment. Cbz = O=C(OCc1ccccc1)*; Bn = c1ccc(C*)cc1
measurementName: pIC50
Scale explanation: pIC50 corresponds to minus log10 of a concentration expressed in moles per litre.

The value of pIC50 measured for the compound COC(=O)[C@H](Cc1c[nH]c2ccccc12)NC(=O)[C@H](COCc1ccccc1)NC(=O)[C@H](Cc1ccc(OCc2ccccc2)cc1)NC(=O)[C@H](Cc1c[nH]cn1)NC(=O)OCc1ccccc1 [Cbz-His-Tyr(OBn)-Ser(OBn)-Trp- OMe] (Cbz-HY(Bn)S(Bn)W-OMe) turned out to be 6.94

###

Recorded pIC50 for the following compounds
target: rat brain farnesyl protein transferase (Rattus norvegicus, UniProt Q02293+Q04631); construct: 40-fold purified rat brain farnesyl protein transferase; experiment: PFT inhibitory activity assay (radiolabeled farnesyl pyrophosphate, biotinylated peptide substrate, streptavidin beads); settings: 40-fold purified enzyme; 30 mM potassium phosphate buffer, pH 7.4; 37°C for 30 minutes; farnesyl pyrophosphate 0.12 µM, (biotinyl)-Ahe-Tyr-Lys-Cys-Val-Ile-Met 0.1 µM
Non-standard residues stand in square brackets, D forms with d. Residues, ends and D or L forms follow the SMILES beside them. *: point of attachment. Cbz = O=C(OCc1ccccc1)*; Bn = c1ccc(C*)cc1; NHNH2 = NN*
Scale explanation: pIC50 corresponds to minus log10 of a concentration expressed in moles per litre.

Reference set (5 entries):
compound	reading
C[C@@H](NC(=O)[C@H](Cc1c[nH]c2ccccc12)NC(=O)[C@H](COCc1ccccc1)NC(=O)[C@H](Cc1ccccc1)NC(=O)[C@H](Cc1c[nH]cn1)NC(=O)OCc1ccccc1)C(N)=O [Cbz-His-Phe-Ser(OBn)-Trp-DAla-NH2, Cbz-His-Phe-Ser(OBn)-Trp-D-Ala- NH2] (Cbz-HFS(Bn)W[dA]-NH2)	8.00
C[C@@H](NC(=O)[C@H](Cc1c[nH]c2ccccc12)NC(=O)[C@H](COCc1ccccc1)NC(=O)[C@H](Cc1ccc(OCc2ccccc2)cc1)NC(=O)[C@H](Cc1c[nH]cn1)NC(=O)OCc1ccccc1)C(=O)NN (Cbz-HY(Bn)S(Bn)W[dA]-NHNH2)	7.21
C[C@@H](NC(=O)[C@H](Cc1c[nH]c2ccccc12)NC(=O)[C@H](COCc1ccccc1)NC(=O)[C@H](Cc1ccc(OCc2ccccc2)cc1)NC(=O)[C@H](Cc1c[nH]cn1)NC(=O)OCc1ccccc1)C(=O)O [Cbz-His-Tyr(OBn)-Ser(OBn)-Trp-DAla- OH, Cbz-His-Tyr(OBn)-Ser(OBn)-Trp-D-Ala] (Cbz-HY(Bn)S(Bn)W[dA]-OH)	7.32
C[C@@H](NC(=O)[C@H](Cc1c[nH]c2ccccc12)NC(=O)[C@H](COCc1ccccc1)NC(=O)[C@@H](Cc1ccc(OCc2ccccc2)cc1)NC(=O)[C@H](Cc1c[nH]cn1)NC(=O)OCc1ccccc1)C(N)=O [Cbz-His-DTyr(OBn)-Ser(OBn)-Trp-DAla-NH2] (Cbz-H[dY](Bn)S(Bn)W[dA]-NH2)	7.41
C[C@H](NC(=O)[C@H](COCc1ccccc1)NC(=O)[C@H](Cc1ccc(OCc2ccccc2)cc1)NC(=O)[C@H](Cc1c[nH]cn1)NC(=O)OCc1ccccc1)C(=O)N[C@H](C)C(N)=O [Cbz-His-Tyr (OBn)-Ser(OBn)-Ala-DAla-NH2, Cbz-His-Tyr(OBn)-Ser(OBn)-Ala-D-Ala- NH2] (Cbz-HY(Bn)S(Bn)A[dA]-NH2)	6.48

The value of pIC50 measured for the compound C[C@@H](NC(=O)[C@H](Cc1c[nH]c2ccccc12)NC(=O)[C@H](COCc1ccccc1)NC(=O)[C@H](Cc1ccc(OCc2ccccc2)cc1)NC(=O)[C@H](Cc1c[nH]cn1)NC(=O)OCc1ccccc1)C(N)=O [Cbz-His-Tyr(OBn)-Ser(OBn)-Trp-DAla- NH2] (Cbz-HY(Bn)S(Bn)W[dA]-NH2) turned out to be 7.77

The value of pIC50 measured for the compound COC(=O)[C@@H](C)NC(=O)[C@H](Cc1c[nH]c2ccccc12)NC(=O)[C@H](COCc1ccccc1)NC(=O)[C@H](Cc1ccc(OCc2ccccc2)cc1)NC(=O)[C@H](Cc1c[nH]cn1)NC(=O)OCc1ccccc1 [Cbz-His-Tyr(OBn)-Ser(OBn)-Trp-DAla-OMe, Cbz-His-Tyr(OBn)-Ser(OBn)-Trp-D-Ala-OMe] (Cbz-HY(Bn)S(Bn)W[dA]-OMe) turned out to be 7.72

###

Recorded IC50 for the following compounds
molecular target: rat brain farnesyl protein transferase (Rattus norvegicus, UniProt Q02293+Q04631); construct: 40-fold purified rat brain farnesyl protein transferase; experiment: PFT inhibitory activity assay (radiolabeled farnesyl pyrophosphate, biotinylated peptide substrate, streptavidin beads); settings: 40-fold purified enzyme; 30 mM potassium phosphate buffer, pH 7.4; 37°C for 30 minutes; farnesyl pyrophosphate 0.12 µM, (biotinyl)-Ahe-Tyr-Lys-Cys-Val-Ile-Met 0.1 µM
Non-standard residues stand in square brackets, D forms with d. Residues, ends and D or L forms follow the SMILES beside them. *: point of attachment. pY = N[C@@H](Cc1ccc(OP(=O)(O)O)cc1)C(=O)O; Cbz = O=C(OCc1ccccc1)*; Bn = c1ccc(C*)cc1
Your answer is read as nM, so omit the unit and give the number.

Reference set (4 entries):
compound	scaleUnit	IC50
C[C@@H](NC(=O)[C@H](Cc1c[nH]c2ccccc12)NC(=O)[C@H](COCc1ccccc1)NC(=O)[C@H](Cc1ccc(OCc2ccccc2)cc1)NC(=O)[C@@H](Cc1c[nH]cn1)NC(=O)OCc1ccccc1)C(N)=O [Cbz-DHis-Tyr (OBn)-Ser(OBn)-Trp-DAla-NH2] (Cbz-[dH]Y(Bn)S(Bn)W[dA]-NH2)	nM	120
C[C@@H](NC(=O)[C@H](Cc1c[nH]c2ccccc12)NC(=O)[C@H](COCc1ccccc1)NC(=O)[C@H](Cc1ccc(OP(=O)(O)O)cc1)NC(=O)[C@H](Cc1c[nH]cn1)NC(=O)OCc1ccccc1)C(N)=O (Cbz-H[pY]S(Bn)W[dA]-NH2)	nM	9
C[C@@H](NC(=O)[C@H](Cc1c[nH]c2ccccc12)NC(=O)[C@H](COCc1ccccc1)NC(=O)[C@H](Cc1ccc(O)cc1)NC(=O)[C@H](Cc1c[nH]cn1)NC(=O)OCc1ccccc1)C(N)=O [Cbz-His-Tyr-Ser(OBn)-Trp-DAla-NH2, Cbz-His-Tyr-Ser(OBn)-Trp-D-Ala- NH2] (Cbz-HYS(Bn)W[dA]-NH2)	nM	40
CCNC(=O)[C@@H](C)NC(=O)[C@H](Cc1c[nH]c2ccccc12)NC(=O)[C@H](COCc1ccccc1)NC(=O)[C@H](Cc1ccc(OCc2ccccc2)cc1)NC(=O)[C@H](Cc1c[nH]cn1)NC(=O)OCc1ccccc1 [Cbz-His-Tyr(OBn)-Ser(OBn)-Trp-DAla- NHEt] (Cbz-HY(Bn)S(Bn)W[dA]-NHEt)	nM	230

The value of IC50 measured for the compound C[C@@H](NC(=O)[C@H](Cc1c[nH]c2ccccc12)NC(=O)[C@H](CO)NC(=O)[C@H](Cc1ccc(OCc2ccccc2)cc1)NC(=O)[C@H](Cc1c[nH]cn1)NC(=O)OCc1ccccc1)C(N)=O [Cbz-His-Tyr(OBn)-Ser-Trp-DAla-NH2, Cbz-His-Tyr(OBn)-Ser-Trp-D-Ala- NH2] (Cbz-HY(Bn)SW[dA]-NH2) turned out to be 1800
